# test.method.notes: in vitro
# assay.context: human
experimental.readout: viability at 80 µM

Field request: viability at 80 µM | item: COc1ccc2[nH]c([S+]([O-])Cc3ncc(C)c(OC)c3C)nc2n1 (stereo not shown) [Tenatoprazole, tenatoprazole]
> 80%

* * *

Recorded CC50 at 24 h by entry
# test.method.notes: WST-1 cellular metabolism measurement for the five prazoles (CC50)
# Format: cell-based
# assay.context: human, 293 T cells, 50% metabolic activity of control, WST reagent, read-out: Cytotoxicity (CC50)

compound | value
Cc1c(OCC(F)(F)F)ccnc1C[S+]([O-])c1nc2ccccc2[nH]1 (centres unmarked) | 50 µM
COc1ccnc(C[S+]([O-])c2nc3ccc(OC(F)F)cc3[nH]2)c1OC (centres unmarked) [Pantoprazole, pantoprazole sodium hydrate] | 40 µM
COc1ccc2nc([S@@+]([O-])Cc3ncc(C)c(OC)c3C)[nH]c2c1 [Esomeprazole, Esomeprazole magnesium hydrate] | 75 µM
COCCCOc1ccnc(C[S+]([O-])c2nc3ccccc3[nH]2)c1C (centres unmarked) [Rabeprazole, rabeprazole sodium] | 150 µM

Proceed to the following item.
Field request: CC50 at 24 h | item: COc1ccc2[nH]c([S+]([O-])Cc3ncc(C)c(OC)c3C)nc2n1 (centres unmarked)
125 µM
